tested on: Fibroblast; experiment: Multiplex assay against human fibroblast; type: toxicity, cell-based; conditions: 24 h, 10 µM, compound concentration 10 uM, replicate 2
measurement.name: Population Mitochondria Different-Phenotype (%)
Output spec: scalar in %, unitless text.

# Population Mitochondria Different-Phenotype (%) (molecule: "O=C(O)c1ccc2cc(-c3ccc(O)c(C45CC6CC(CC(C6)C4)C5)c3)ccc2c1" ) is 26

# Population Mitochondria Different-Phenotype (%) (molecule: "c1ccc2oc(-c3csc(C4CCN(Cc5nc6ncccc6[nH]5)CC4)n3)cc2c1" ) is 6

# Population Mitochondria Different-Phenotype (%) (molecule: CC(C)Oc1ccc(C(=O)N[C@H](CNC(=O)CN(C)C)Cc2ccc(-c3cn4cccc([C@H](C)O)c4n3)cc2)cc1Cl [GSK-923295A] ) is 96

***
# Population Mitochondria Different-Phenotype (%) (molecule: "Cc1cc2c(cc1N1C(=O)c3cccc4c(CCCO)ccc(c34)C1=O)n(C)c(=O)n2C" ) is 76

# Population Mitochondria Different-Phenotype (%) (molecule: CN(C)C/C=C/C(=O)Nc1cc2c(Nc3ccc(F)c(Cl)c3)ncnc2cc1O[C@H]1CCOC1.O=C(O)/C=C\C(=O)O.O=C(O)/C=C\C(=O)O [AFATINIB DIMALEATE] ) is 26

# Population Mitochondria Different-Phenotype (%) (molecule: CCC(=O)O[C@]1(C(=O)SCF)[C@H](C)C[C@H]2[C@@H]3C[C@H](F)C4=CC(=O)C=C[C@]4(C)[C@@]3(F)[C@@H](O)C[C@@]21C [FLUTICASONE PROPIONATE] ) is 31

# Population Mitochondria Different-Phenotype (%) (molecule: "CC(C)(C)c1cnc(CSc2cnc(NC(=O)C3CCNCC3)s2)o1" ) is 62

# Population Mitochondria Different-Phenotype (%) (molecule: "COc1cc2c(NC3CCN(C(C)C)CC3)nc(N3CCC(F)(F)CC3)nc2cc1OCCCN1CCCC1" ) is 100

# Population Mitochondria Different-Phenotype (%) (molecule: "CCCn1c(=O)c2[nH]c(C34CC5CC(CC3C5)C4)nc2n(CCC)c1=O" ) is 81

# Population Mitochondria Different-Phenotype (%) (molecule: "CNc1oc(-c2cccc3ccccc23)nc1C#N" ) is 3

# Population Mitochondria Different-Phenotype (%) (molecule: "COc1ccc(NS(=O)(=O)c2sc3ccc(Cl)cc3c2C)cc1N1CCNCC1.Cl" ) is 97

# Population Mitochondria Different-Phenotype (%) (molecule: "Cl.Cl.Nc1ncnc2c1c(-c1cccc(OCc3ccccc3)c1)cn2[C@H]1C[C@@H](CN2CCC2)C1" ) is 96

# Population Mitochondria Different-Phenotype (%) (molecule: "CC(C)N1CCC(C)(C)c2cc(C#Cc3ccc(C(=O)O)cc3)ccc21" ) is 3

* * *

test system: U2OS; test: Multiplex assay against U2OS; assay type: toxicity, cell-based; conditions: human, 12 h, 1 µM, compound concentration 1 uM, replicate 2
measurement.name: Population Tubulin-Different-Phenotype (%)
Output spec: scalar in %, unitless text.

Would you please look over these solved cases?
# Population Tubulin-Different-Phenotype (%) (compound: "Nc1ccc(C(=O)Nc2cccc(-c3nc(N4CCOCC4)c4oc5ncccc5c4n3)c2)cn1" ) is 28

# Population Tubulin-Different-Phenotype (%) (compound: Cc1nc(Cc2cccc(C(F)(F)F)c2)sc1-c1ccc(C(N)=O)nc1 [TP-024n] ) is 16

# Population Tubulin-Different-Phenotype (%) (compound: "CC(=O)O[C@H]1C(=O)[C@@]2(C)[C@H]([C@H](OC(=O)c3ccccc3)[C@]3(O)C[C@H](OC(=O)[C@H](O)[C@@H](NC(=O)c4ccccc4)c4ccccc4)C(C)=C1C3(C)C)[C@]1(OC(C)=O)CO[C@@H]1C[C@@H]2O" ) is 33

Now for another entry.
# Population Tubulin-Different-Phenotype (%) (compound: "CCc1cc2c(cc1CC)CC(NC[C@H](O)c1ccc(O)c3[nH]c(=O)ccc13)C2" ) is 14

* * *

test system: Fibroblast; assay: Multiplex assay against human fibroblast; type: toxicity, cell-based; settings: 12 h, 1 µM, compound concentration 1 uM, replicate 1
measurement.name: Population Membrane Permeable-Phenotype (%)
Output spec: scalar in %, unitless text.

Would you please look over these solved cases?
# Population Membrane Permeable-Phenotype (%) (compound: "Nc1nc2c(c(N3CCNCC3)n1)CCC1=C2[C@@H]2CCCC[C@@H]2O1" ) is 10

# Population Membrane Permeable-Phenotype (%) (compound: "CC(C)N1CCC(C)(C)c2cc(C#Cc3ccc(C(=O)O)cc3)ccc21" ) is 30

# Population Membrane Permeable-Phenotype (%) (compound: Cc1nc(Cc2cccc(C(F)(F)F)c2)sc1-c1ccc(C(N)=O)nc1 [TP-024n] ) is 23

***
# Population Membrane Permeable-Phenotype (%) (compound: "COc1cc2c(Nc3ccc(NC(=O)c4ccccc4)cc3)ncnc2cc1OCCCN1CCOCC1" ) is 9

# Population Membrane Permeable-Phenotype (%) (compound: "CC(C)(C)c1cnc(CSc2cnc(NC(=O)C3CCNCC3)s2)o1" ) is 10

# Population Membrane Permeable-Phenotype (%) (compound: "CN(C)CCOc1ccc(-c2nc(-c3ccncc3)c(-c3ccc4c(c3)CC/C4=N\O)[nH]2)cc1" ) is 4

# Population Membrane Permeable-Phenotype (%) (compound: "COc1cc2c(NC3CCN(C(C)C)CC3)nc(N3CCC(F)(F)CC3)nc2cc1OCCCN1CCCC1" ) is 16

# Population Membrane Permeable-Phenotype (%) (compound: "CNc1oc(-c2cccc3ccccc23)nc1C#N" ) is 25

# Population Membrane Permeable-Phenotype (%) (compound: CN(C)C/C=C/C(=O)Nc1cc2c(Nc3ccc(F)c(Cl)c3)ncnc2cc1O[C@H]1CCOC1.O=C(O)/C=C\C(=O)O.O=C(O)/C=C\C(=O)O [AFATINIB DIMALEATE] ) is 13

* * *

Measured Population Mitochondria Different-Phenotype (%) accompanies every entry in the list below.
system: Fibroblast; experiment: Multiplex assay against human fibroblast; type: toxicity, cell-based; details: 48 h, 1 µM, compound concentration 1 uM, replicate 1
Output spec: scalar in %, unitless text.

Would you please look over these solved cases?
# Population Mitochondria Different-Phenotype (%) (compound: "Nc1nc2c(c(N3CCNCC3)n1)CCC1=C2[C@@H]2CCCC[C@@H]2O1" ) is 1

# Population Mitochondria Different-Phenotype (%) (compound: "COc1ccc(NS(=O)(=O)c2sc3ccc(Cl)cc3c2C)cc1N1CCNCC1.Cl" ) is 0

# Population Mitochondria Different-Phenotype (%) (compound: "CC(C)N1CCC(C)(C)c2cc(C#Cc3ccc(C(=O)O)cc3)ccc21" ) is 0

***
# Population Mitochondria Different-Phenotype (%) (compound: "O=C(O)c1ccc2cc(-c3ccc(O)c(C45CC6CC(CC(C6)C4)C5)c3)ccc2c1" ) is 15

# Population Mitochondria Different-Phenotype (%) (compound: "CCCn1c(=O)c2[nH]c(C34CC5CC(CC3C5)C4)nc2n(CCC)c1=O" ) is 3

* * *

test system: U2OS; experiment: Multiplex assay against U2OS; type: toxicity, cell-based; details: human, 12 h, 10 µM, compound concentration 10 uM, replicate 2
measurement.name: Population Normal (%)
Output spec: scalar in %, unitless text.

Would you please look over these solved cases?
// Population Normal (%) (U2OS) for "CCc1cc2c(cc1CC)CC(NC[C@H](O)c1ccc(O)c3[nH]c(=O)ccc13)C2" = 93

// Population Normal (%) (U2OS) for "CNc1oc(-c2cccc3ccccc23)nc1C#N" = 53

// Population Normal (%) (U2OS) for CCC(=O)O[C@]1(C(=O)SCF)[C@H](C)C[C@H]2[C@@H]3C[C@H](F)C4=CC(=O)C=C[C@]4(C)[C@@]3(F)[C@@H](O)C[C@@]21C [FLUTICASONE PROPIONATE] = 92

// Population Normal (%) (U2OS) for "CCOc1cc(N2CCC(O)CC2)ccc1Nc1ncc2c(n1)N(C1CCCC1)CCC(=O)N2C" = 91

// Population Normal (%) (U2OS) for CCn1c(-c2nonc2N)nc2cnc(Oc3cccc(NC(=O)c4ccc(OCCN5CCOCC5)cc4)c3)cc21 [GSK-269962A] = 92

// Population Normal (%) (U2OS) for "COc1cc2c(Nc3ccc(NC(=O)c4ccccc4)cc3)ncnc2cc1OCCCN1CCOCC1" = 88

// Population Normal (%) (U2OS) for "CC(C)(C)c1cnc(CSc2cnc(NC(=O)C3CCNCC3)s2)o1" = 86

Now for another entry.
// Population Normal (%) (U2OS) for "CCOc1cc2ncc(C#N)c(Nc3ccc(OCc4cccc(F)c4)c(Cl)c3)c2cc1NC(=O)/C=C/CN(C)C" = 87

* * *

tested on: U2OS; assay: Incucyte cell viability with U2OS; format: toxicity, cell-based; settings: human, 6 h, 10 µM, compound concentration 10 uM, replicate number 1, timepoint 6 hours; also: filed as whole numbers so only -1 and 0 and 1 occur
measurement.name: Growth Rate

# Growth Rate (compound: CC(C)CC(=O)N1CCc2nc(-c3ccc(Br)cc3)nc(N(C)Cc3ccccc3)c2C1 [THPP-1-NC] ) is 1

# Growth Rate (compound: C[C@@H]1CN(c2cc(-c3nn(C)c4ccc(OC5(C)CC5)cc34)ncn2)C[C@H](C)O1 [MLi-2-NC] ) is 1

# Growth Rate (compound: "CC(=O)c1cc(-c2cc(C(=O)NC3CC3)ccc2C)c2ncccn12" ) is 0

# Growth Rate (compound: "COc1cc(N2CCC(N(C)C)CC2)ccc1Nc1ncc(Cl)c(Nc2ccccc2P(C)(C)=O)n1" ) is 0

***
# Growth Rate (compound: N#Cc1ccccc1OCC(O)CNCCNC(=O)Nc1ccccc1 (centres undefined) [ICI-89406] ) is 1

# Growth Rate (compound: CCC(=O)N1CC[C@H](Nc2ncnc3c2CN(c2cnc(OC)c(C(F)(F)F)c2)CC3)C1 [LENIOLISIB] ) is 0

# Growth Rate (compound: "O=C(Nc1cccnc1)c1cc(-c2ccnc(F)c2)ccc1OCc1ccccc1" ) is 1

# Growth Rate (compound: "CCOC(=O)c1cc(C#N)c(N2CCC(C(=O)NS(=O)(=O)Cc3ccccc3)CC2)nc1C" ) is 1

All values here come from ChEMBL document CHEMBL4689842.
